# Test system: DL1 cells
# test-description: cytotoxicity in Drosophila DL1 cells
# Assay type: cell-based
# assay-conditions: DL1 cells, 4 µM, replicate 2
Below is a list of entries, each paired with its recorded Luminescence Raw2 value.
Would you mind answering with just the numeric figure?

Illustrative cases are given below, each with its answer.
{"columns": ["compound", "Luminescence Raw2"],
 "data": [
  ["C=C1CCC2C(C)(CCC=C(C)C)C(O)CCC2(C)C1Cc1c(O)c(C)c(C)oc1=O (centres unmarked)", 345209],
  ["C=C1CC[C@H]2[C@]3(C)C[C@H](C=C(C)C)O[C@H]3CC[C@]2(C)[C@@H]1Cc1c(OC)oc(C)c(C)c1=O", 147451],
  ["C=C1CC[C@H]2[C@]3(C)C[C@H](C=C(C)C)O[C@H]3CC[C@]2(C)[C@@H]1Cc1c(O)c(C)c(C)oc1=O", 145288]
]}

Field Luminescence Raw2 (DL1 cells), entry C=C1CCC2C(C)(CCC=C(C)C)C(=O)CCC2(C)C1Cc1c(O)c(C)c(C)oc1=O (centres unmarked) : 282109

Field Luminescence Raw2 (DL1 cells), entry C=C1CCC2C(C)(CCC=C(C)C)C(O)CCC2(C)C1Cc1c(OC)oc(C)c(C(=O)OC)c1=O (centres unmarked) : 126556

###

# tgt: Aβ42 (Homo sapiens)
# test-description: Th-T (thioflavin-T) assay of Aβ42 aggregation
# Format: biochemical
# assay-conditions: column suffix _50; reading M105
measurement-type: Fig. 7a Th-T reading, mean of three wells
Would you mind answering with just the numeric figure?

Illustrative cases are given below, each with its answer.
{"columns": ["molecule", "endpoint-result"],
 "data": [
  ["C=C1CC[C@@H]2[C@](C)(CC[C@H]3O[C@H](C=C(C)C)C[C@@]23C)[C@@H]1Cc1c(OC)oc(CO)c(C(=O)OC)c1=O [Compound 21]", 0.4769],
  ["C=C1CCC2C(C)(CCC=C(C)C)C(O)CCC2(C)C1Cc1c(OC)oc(CO)c(C(=O)OC)c1=O (centres unmarked) [Compound 13]", 0.477],
  ["C=C1CC[C@@H]2[C@](C)(CC[C@H]3O[C@H](C=C(C)C)C[C@@]23C)[C@@H]1Cc1c(OC)oc(CO)c(C)c1=O [Compound 20]", 2.107],
  ["C=C1CCC2C(C)(CCC=C(C)C)C(O)CCC2(C)C1Cc1c(OC)oc(C)c(C(=O)OC)c1=O (centres unmarked) [Compound 14]", 1.325]
]}

Query C=C1CCC2C(C)(CCC=C(C)C)C(O)CCC2(C)C1Cc1c(OC)oc(CO)c(C)c1=O (centres unmarked) [Compound 12] yields Fig. 7a Th-T reading, mean of three wells of 1.42

###

# tgt: Aβ42 (Homo sapiens, UniProt P05067)
# Sequence (P05067 672-713): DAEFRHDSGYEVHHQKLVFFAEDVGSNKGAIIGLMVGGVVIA
# test-description: Th-T (thioflavin-T) assay of Aβ42 aggregation
# Assay type: biochemical
# assay-conditions: reading M113; compound at 50 (head suffix _50)
measurement-type: Th-T fluorescence, mean of three wells (Fig. 7a)
Would you mind answering with just the numeric figure?

Illustrative cases are given below, each with its answer.
{"columns": ["compound", "endpoint-result"],
 "data": [
  ["C=C1CCC2C(C)(CCC=C(C)C)C(O)CCC2(C)C1Cc1c(OC)oc(C)c(C(=O)OC)c1=O (centres unmarked)", 1.142],
  ["C=C1CCC2C(C)(CCC=C(C)C)C(O)CCC2(C)C1Cc1c(OC)oc(CO)c(C)c1=O (centres unmarked)", 1.457],
  ["C=C1CCC2C(C)(CCC=C(C)C)C(O)CCC2(C)C1Cc1c(OC)oc(CO)c(C(=O)OC)c1=O (centres unmarked)", 0.473],
  ["C=C1CC[C@@H]2[C@](C)(CC[C@H]3O[C@H](C=C(C)C)C[C@@]23C)[C@@H]1Cc1c(OC)oc(CO)c(C(=O)OC)c1=O", 0.4847]
]}

Kindly review the next compound as well.
Query "C=C1CC[C@@H]2[C@](C)(CC[C@H]3O[C@H](C=C(C)C)C[C@@]23C)[C@@H]1Cc1c(OC)oc(CO)c(C)c1=O" yields Th-T fluorescence, mean of three wells (Fig. 7a) of 2.0902

###

Below is a list of entries, each paired with its recorded Th-T fluorescence, mean of three wells (Fig. 7a) value.
# tgt: Aβ42 (Homo sapiens, UniProt P05067)
# test-description: Th-T (thioflavin-T) assay of Aβ42 aggregation
# Assay type: biochemical
# assay-conditions: reading M121; compound at 10 (head suffix _10)

Illustrative cases are given below, each with its answer.
{"columns": ["compound", "endpoint-result"],
 "data": [
  ["C=C1CCC2C(C)(CCC=C(C)C)C(O)CCC2(C)C1Cc1c(OC)oc(C)c(C(=O)OC)c1=O (centres unmarked)", 2.89],
  ["C=C1CC[C@@H]2[C@](C)(CC[C@H]3O[C@H](C=C(C)C)C[C@@]23C)[C@@H]1Cc1c(OC)oc(CO)c(C(=O)OC)c1=O", 1.7005],
  ["C=C1CCC2C(C)(CCC=C(C)C)C(O)CCC2(C)C1Cc1c(OC)oc(CO)c(C(=O)OC)c1=O (centres unmarked)", 1.546],
  ["C=C1CC[C@@H]2[C@](C)(CC[C@H]3O[C@H](C=C(C)C)C[C@@]23C)[C@@H]1Cc1c(OC)oc(CO)c(C)c1=O", 3.196]
]}

Kindly review the next compound as well.
Query C=C1CCC2C(C)(CCC=C(C)C)C(O)CCC2(C)C1Cc1c(OC)oc(CO)c(C)c1=O (centres unmarked) yields Th-T fluorescence, mean of three wells (Fig. 7a) of 2.53

###

# tgt: Aβ42 (Homo sapiens, UniProt P05067)
# test-description: Th-T (thioflavin-T) assay of Aβ42 aggregation
# Format: biochemical
# assay-conditions: column suffix _20; reading M102
measurement-type: Fig. 7a Th-T reading, mean of three wells
Would you mind answering with just the numeric figure?

{"columns": ["compound", "tgt", "endpoint-result"],
 "data": [
  ["C=C1CCC2C(C)(CCC=C(C)C)C(O)CCC2(C)C1Cc1c(OC)oc(CO)c(C(=O)OC)c1=O (centres unmarked)", "Aβ42 (Homo sapiens, UniProt P05067)", 1.036],
  ["C=C1CC[C@@H]2[C@](C)(CC[C@H]3O[C@H](C=C(C)C)C[C@@]23C)[C@@H]1Cc1c(OC)oc(CO)c(C)c1=O", "Aβ42 (Homo sapiens, UniProt P05067)", 3.237],
  ["C=C1CC[C@@H]2[C@](C)(CC[C@H]3O[C@H](C=C(C)C)C[C@@]23C)[C@@H]1Cc1c(OC)oc(CO)c(C(=O)OC)c1=O", "Aβ42 (Homo sapiens, UniProt P05067)", 0.9188],
  ["C=C1CCC2C(C)(CCC=C(C)C)C(O)CCC2(C)C1Cc1c(OC)oc(CO)c(C)c1=O (centres unmarked)", "Aβ42 (Homo sapiens, UniProt P05067)", 2.083]
]}

Query C=C1CCC2C(C)(CCC=C(C)C)C(O)CCC2(C)C1Cc1c(OC)oc(C)c(C(=O)OC)c1=O (centres unmarked) yields Fig. 7a Th-T reading, mean of three wells of 1.725

###

# tgt: Aβ42 (Homo sapiens)
# test-description: Th-T (thioflavin-T) assay of Aβ42 aggregation
# Type: biochemical
# assay-conditions: head suffix _20 (concentration 20); reading M75
measurement-type: Th-T fluorescence of Aβ42 (sheet Fig. 7a), mean of three wells

Query "C=C1CC[C@@H]2[C@](C)(CC[C@H]3O[C@H](C=C(C)C)C[C@@]23C)[C@@H]1Cc1c(OC)oc(CO)c(C(=O)OC)c1=O" yields Th-T fluorescence of Aβ42 (sheet Fig. 7a), mean of three wells of 0.3227

Query C=C1CCC2C(C)(CCC=C(C)C)C(O)CCC2(C)C1Cc1c(OC)oc(C)c(C(=O)OC)c1=O (centres unmarked) yields Th-T fluorescence of Aβ42 (sheet Fig. 7a), mean of three wells of 1.951

###

Below is a list of entries, each paired with its recorded Th-T assay signal, mean of three wells (Fig. 7a) value.
# tgt: Aβ42 (Homo sapiens, UniProt P05067)
# test-description: Th-T (thioflavin-T) assay of Aβ42 aggregation
# Format: biochemical
# assay-conditions: column suffix _20; reading M8
Would you mind answering with just the numeric figure?

Illustrative cases are given below, each with its answer.
{"columns": ["molecule", "endpoint-result"],
 "data": [
  ["C=C1CC[C@@H]2[C@](C)(CC[C@H]3O[C@H](C=C(C)C)C[C@@]23C)[C@@H]1Cc1c(OC)oc(CO)c(C)c1=O", 0.5038],
  ["C=C1CCC2C(C)(CCC=C(C)C)C(O)CCC2(C)C1Cc1c(OC)oc(C)c(C(=O)OC)c1=O (centres unmarked)", 0.3015],
  ["C=C1CCC2C(C)(CCC=C(C)C)C(O)CCC2(C)C1Cc1c(OC)oc(CO)c(C(=O)OC)c1=O (centres unmarked)", 0.1963],
  ["C=C1CC[C@@H]2[C@](C)(CC[C@H]3O[C@H](C=C(C)C)C[C@@]23C)[C@@H]1Cc1c(OC)oc(CO)c(C(=O)OC)c1=O", 0.1954]
]}

Kindly review the next molecule as well.
Query C=C1CCC2C(C)(CCC=C(C)C)C(O)CCC2(C)C1Cc1c(OC)oc(CO)c(C)c1=O (centres unmarked) yields Th-T assay signal, mean of three wells (Fig. 7a) of 2.421
